- Organism: Homo sapiens
- protocol: Selectivity ratio of Ke for human delta opioid receptor to Ke for human kappa opioid receptor
Please enter y where Ratio Ke is greater than or equal to 300, and n where it is lower.

structure_as_smiles=CC(C)[C@@H](CN1CCN(c2cccc(O)c2)[C@@H](C)C1)NC(=O)c1ccc(Oc2cccc(O)c2)cc1 classification=y
structure_as_smiles=CC(C)[C@@H](CN1CCN(c2cccc(O)c2)[C@@H](C)C1)NC(=O)c1ccc(Oc2cccc(Br)c2)cc1 classification=n
structure_as_smiles=Cc1cccc(Oc2ccc(C(=O)N[C@H](CN3CCN(c4cccc(O)c4)[C@@H](C)C3)C(C)C)c(C)c2)c1 classification=n
structure_as_smiles=CC(C)[C@@H](CN1CCN(c2cccc(O)c2)[C@@H](C)C1)NC(=O)c1ccc(Oc2cccc(Cl)c2)cc1 classification=n
structure_as_smiles=CC(C)[C@@H](CN1CCN(c2cccc(O)c2)[C@@H](C)C1)NC(=O)c1ccc(Oc2cccc(F)c2)cc1 classification=n

Q. Exam item: decide whether the reported Ratio Ke for "Cc1cccc(Oc2ccc(C(=O)N[C@H](CN3CCN(c4cccc(O)c4)[C@@H](C)C3)C(C)C)cc2C)c1" is at least 300.
A. n

Q. Exam item: decide whether the reported Ratio Ke for "Cc1ccc(Oc2ccc(C(=O)N[C@H](CN3CCN(c4cccc(O)c4)[C@@H](C)C3)C(C)C)cc2)cc1" is at least 300.
A. n

Q. Exam item: decide whether the reported Ratio Ke for "Cc1cccc(Oc2ccc(C(=O)N[C@H](CN3CCN(c4cccc(O)c4)[C@@H](C)C3)C(C)C)cc2Cl)c1" is at least 300.
A. y

====

# Lookup of reported log10 Ke keyed by entry
- target-entity: Kappa-type opioid receptor (Homo sapiens)
- protocol: Antagonist activity at human kappa opioid receptor expressed in CHO cells assessed as inhibition of U69,593-stimulated [35S]GTPgammaS binding
- Type: functional, cell-based
Scale type: logarithmic (base 10). Underlying Ke unit: nM.

structure_as_smiles=Cc1ccc(O)c(Oc2ccc(C(=O)N[C@H](CN3CCN(c4cccc(O)c4)[C@@H](C)C3)C(C)C)cc2Cl)c1 reading=0.48
structure_as_smiles=CC(C)[C@@H](CN1CCN(c2cccc(O)c2)[C@@H](C)C1)NC(=O)c1ccc(Oc2cccc(Br)c2)cc1 reading=-0.32
structure_as_smiles=Cc1cccc(Oc2ccc(C(=O)N[C@H](CN3CCN(c4cccc(O)c4)[C@@H](C)C3)C(C)C)c(O)c2)c1 reading=0.28
structure_as_smiles=CC(C)[C@@H](CN1CCN(c2cccc(O)c2)[C@@H](C)C1)NC(=O)c1ccc(Oc2ccccc2)cc1 reading=-0.07
structure_as_smiles=CC(C)[C@@H](CN1CCN(c2cccc(O)c2)[C@@H](C)C1)NC(=O)c1ccc(Oc2cccc(C(F)(F)F)c2)cc1 reading=0.08

Quick note, log10 Ke for "CC(C)[C@@H](CN1CCN(c2cccc(O)c2)[C@@H](C)C1)NC(=O)c1ccc(Oc2ccccc2O)c(Cl)c1" landed at 0.70

Quick note, log10 Ke for "CC(C)[C@@H](CN1CCN(c2cccc(O)c2)[C@@H](C)C1)NC(=O)c1ccc(Oc2cccc(Cl)c2)cc1" landed at -0.38

Quick note, log10 Ke for "CC(C)[C@@H](CN1CCN(c2cccc(O)c2)[C@@H](C)C1)NC(=O)c1ccc(Oc2ccccc2O)cc1" landed at 0.03

Quick note, log10 Ke for "CC(C)[C@@H](CN1CCN(c2cccc(O)c2)[C@@H](C)C1)NC(=O)c1ccc(Oc2ccccc2F)cc1" landed at -0.12

Quick note, log10 Ke for "CCCCc1ccc(C(=O)N[C@H](CN2CCN(c3cccc(O)c3)[C@@H](C)C2)C(C)C)cc1" landed at 0.45

Quick note, log10 Ke for "COc1ccccc1Oc1ccc(C(=O)N[C@H](CN2CCN(c3cccc(O)c3)[C@@H](C)C2)C(C)C)cc1" landed at 0.75

Quick note, log10 Ke for "Cc1ccc(Oc2ccc(C(=O)N[C@H](CN3CCN(c4cccc(O)c4)[C@@H](C)C3)C(C)C)cc2)cc1" landed at -0.16

Quick note, log10 Ke for "COc1cc(Oc2cccc(C)c2)ccc1C(=O)N[C@H](CN1CCN(c2cccc(O)c2)[C@@H](C)C1)C(C)C" landed at 0.11

Quick note, log10 Ke for "CC(C)[C@@H](CN1CCN(c2cccc(O)c2)[C@@H](C)C1)NC(=O)c1ccc(Oc2cccc(F)c2)cc1" landed at 0.17

Quick note, log10 Ke for "Cc1cccc(Oc2ccc(C(=O)N[C@H](CN3CCN(c4cccc(O)c4)[C@@H](C)C3)C(C)C)cc2)c1O" landed at -0.47

Quick note, log10 Ke for "CC(C)[C@@H](CN1CCN(c2cccc(O)c2)[C@@H](C)C1)NC(=O)c1ccc(Oc2ccccc2)cn1" landed at 0.45

Quick note, log10 Ke for "Cc1cccc(Oc2ccc(C(=O)N[C@H](CN3CCN(c4cccc(O)c4)[C@@H](C)C3)C(C)C)cc2O)c1" landed at -0.24

Quick note, log10 Ke for "COc1cc(C(=O)N[C@H](CN2CCN(c3cccc(O)c3)[C@@H](C)C2)C(C)C)ccc1Oc1ccccc1O" landed at 1.21

Quick note, log10 Ke for "COc1cc(C(=O)N[C@H](CN2CCN(c3cccc(O)c3)[C@@H](C)C2)C(C)C)ccc1Oc1cc(C)ccc1O" landed at 0.79

Quick note, log10 Ke for "CC(C)[C@@H](CN1CCN(c2cccc(O)c2)[C@@H](C)C1)NC(=O)c1ccc(Oc2cccc(O)c2)cc1" landed at 0.27

Quick note, log10 Ke for "CC(C)[C@@H](CN1CCN(c2cccc(O)c2)[C@@H](C)C1)NC(=O)c1ccc(-c2ccccc2)cc1" landed at 0.27

Quick note, log10 Ke for "COc1ccc(Oc2ccc(C(=O)N[C@H](CN3CCN(c4cccc(O)c4)[C@@H](C)C3)C(C)C)cc2)cc1" landed at -0.22

Quick note, log10 Ke for "COc1cccc(Oc2ccc(C(=O)N[C@H](CN3CCN(c4cccc(O)c4)[C@@H](C)C3)C(C)C)cc2)c1" landed at -0.20

Quick note, log10 Ke for "Cc1cc(C(=O)N[C@H](CN2CCN(c3cccc(O)c3)[C@@H](C)C2)C(C)C)ccc1Oc1ccccc1" landed at -0.20

Quick note, log10 Ke for "Cc1cc(C)cc(Oc2ccc(C(=O)N[C@H](CN3CCN(c4cccc(O)c4)[C@@H](C)C3)C(C)C)cc2)c1" landed at -0.01
